// provenance: paper PMC8414802

# System: Notch-dependent expression of ATOH1 in LS174T cells
# experiment: ATOH1 expression induction in LS174T cell line by GSIs (RT-PCR)
# Type: cell-based, human
# run.parameters: Homo sapiens, GSI treatment 72 h, fold-change vs 0.05% DMSO, read-out: IC50 for ATOH1 expression upregulation
pIC50: −log10 of the molar value.
Listed below: pIC50 values for each entry.

mol	pIC50
C[C@H](NC(=O)CCC(F)(F)F)C(=O)N[C@@H]1C(=O)C=C2N(CCC2(C)C)c2ncccc21	7.21
COc1ccc2c(c1)N1CCC(C)(C)C1=CC(=O)[C@H]2NC(=O)[C@H](C)NC(=O)CCC(F)(F)F	7.76
